Task for the reader: assign each of the following molecules its reported composite z-score.
# systemName: Neurogenic locus notch homolog protein 2 (Homo sapiens)
# experimentalDetails: small molecules binding Notch2 protein – biochemical, small-molecule microarray, 635 nm fluorescence, stem cell growth factors, primary screen (AID 1073)
# settings: higher = more signal
Lab note: record the figure alone, no unit after it.

Give composite z-score for the following molecule: `COC(=O)[C@@]1(Cc2ccccc2)[C@H]2c3cc(C(=O)N4CCCC4)n(CCc4ccccn4)c3C[C@H]2CN1C(=O)c1ccccc1` 1.33

Give composite z-score for the following molecule: `CCOC(=O)C[C@H]1[C@H](OC(=O)c2ccccc2-c2ccccc2)[C@@H](NC(=O)c2ccc3ccccc3c2)c2cc(OCCCO)ccc2N1C(=O)c1ccccc1` 0.299

Give composite z-score for the following molecule: `[N-]=[N+]=Nc1ccccc1C[C@]1(C(=O)N2CCOCC2)COC(c2ccc(OCCCO)cc2)=N1` 1.35

Give composite z-score for the following molecule: `Cc1ccc(S[C@]2(C(=O)NC(C)C)CC(=O)N(Cc3cc(C(F)(F)F)cc(C(F)(F)F)c3)[C@@H]2c2ccc(CO)cc2)cc1` -1.08

Give composite z-score for the following molecule: `CCCCC(=C=CC[C@H](O)c1ccc(OCCO)cc1)CCO` -0.425

Give composite z-score for the following molecule: `C=CCNC(=O)[C@@H]1[C@H]2C(=O)O[C@H](c3ccccc3)[C@H](c3ccccc3)N2[C@H](c2ccc(OCCO)cc2)[C@@]12C(=O)N(C(=O)OCCOC)c1ccc(C#Cc3ccc(OC)cc3)cc12` 0.801

Give composite z-score for the following molecule: `COC(=O)[C@@]1(Cc2ccc(OC)cc2)[C@H]2c3cc(C(=O)N(C)C)n(Cc4ccc(OC(F)(F)F)cc4)c3C[C@H]2CN1C(=O)c1ccccc1` 1.58

Give composite z-score for the following molecule: `C[N+](C)(C)CCCCCCNC(=O)[C@@H]1C[C@@H]2C(=O)N3CCC[C@H]3C(=O)N2[C@@H]1c1ccc(O)cc1` 0.43

Give composite z-score for the following molecule: O=C1C2C=CC(C(O)C3CC=CCC3)N(Nc3ccccc3)C2C(=O)N1c1ccccc1 (centres undefined) 1.61

Give composite z-score for the following molecule: CC(C)(C)OC(=O)CC[C@@]1(C(=O)NCC(O)CO)N=C(c2ccc(OCCCO)cc2)O[C@@H]1c1ccccc1CN=[N+]=[N-] (some centres undefined) 1.49

Give composite z-score for the following molecule: `[N-]=[N+]=NCc1ccccc1[C@@H]1OC(c2ccc(OCCCO)cc2)=N[C@]1(CCS(=O)(=O)c1ccccc1)C(=O)O` 0.797

Give composite z-score for the following molecule: `COc1cccc(C)c1NC(=O)O[C@H]1[C@H](OC(=O)Nc2ccccc2-c2ccccc2)[C@H](OC(=O)Nc2ccccc2-c2ccccc2)[C@@H](OC)O[C@@H]1CO` 1.46

Give composite z-score for the following molecule: O=C1OCCC/C=C\[C@H]2OC34C=CCN(c5ccc6ccccc6c5)C(=O)[C@H]3N(CCO)C(=O)[C@@H]4C12 (some centres undefined) -1.23

Give composite z-score for the following molecule: `COCCOC(=O)N1C(=O)[C@@]2(c3cc(C#CCNC(N)=O)ccc31)[C@H](C(N)=O)[C@H]1C(=O)O[C@H](c3ccccc3)[C@H](c3ccccc3)N1[C@@H]2c1ccccc1OCCO` 1.23

====

# Test system: glycogen synthase kinase-3 (GSK3A per assay name; protocol says GSK3B)
# experimentalDetails: compounds binding glycogen synthase kinase-3 – biochemical, small-molecule microarray, 635 nm fluorescence, GSK3A, primary screen (AID 1103); note: the record names both GSK3A and GSK3B
# settings: fluorescence 635 nm, higher = more signal
Threshold rule: composite z-score greater than or equal to -0.1 is Y; below that, N.

Record `COCCCNC(=O)[C@@]1(CCC(=O)OC(C)(C)C)N=C(c2ccc(OCCCO)cc2)O[C@H]1c1ccccc1N=[N+]=[N-]` ; criterion: composite z-score no lower than -0.1. Met? Y

Record `COCC(=C=CC[C@H](O)c1ccccc1OCCO)C[C@H](O)c1ccccn1` ; criterion: composite z-score no lower than -0.1. Met? N

Record `COc1ccc(C#Cc2ccc3c(c2)[C@]2(C(=O)N3)[C@H](c3ccc(O)cc3)N3[C@H](c4ccccc4)[C@H](c4ccccc4)OC(=O)[C@H]3[C@@H]2C(=O)Nc2nc3ccccc3s2)cc1` ; criterion: composite z-score no lower than -0.1. Met? Y

Record `COc1ccc([Si](C)(C)[C@@H]2[C@@H](CC(=O)N3CCC[C@H]3CO)O[C@]3(C(=O)N(Cc4cccc(N5C(=O)COc6ccccc65)c4)c4ccccc43)[C@H]2C)cc1` ; criterion: composite z-score no lower than -0.1. Met? Y

Record `COC(=O)[C@@]1(Cc2ccc(F)cc2)[C@H]2c3cc(C(=O)N4CCCC4)n(Cc4ccc(C)c(F)c4F)c3C[C@H]2CN1C(=O)c1ccccc1` ; criterion: composite z-score no lower than -0.1. Met? N

Record `COC(=O)[C@@]1(Cc2ccc(OC)cc2)[C@H]2c3cc(C(=O)N(C)C)n(Cc4ccc(OC(F)(F)F)cc4)c3C[C@H]2CN1C(=O)c1ccccc1` ; criterion: composite z-score no lower than -0.1. Met? N

====

# Test system: Fibrinogen (Alexa647-labelled)
# experimentalDetails: Alexa647-fibrinogen binding to printed small molecules – biochemical, small-molecule microarray, 635/667 nm fluorescence, artefact control for SMM control-protein annotation, profiling panel (AID 1131);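 note: z-score merges 667 nm fluorescence with per-spot signal-to-noise over triplicate slides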
# settings: fibrinogen-A647 binding fluorescence, higher = more signal
experimentalEndpoint: composite z-score
Lab note: record the figure alone, no unit after it.

Give composite z-score for the following compound: COc1cc(NN2C(C(O)c3ccc(N(C)C)cc3)C=CC3C(=O)N(c4ccccc4)C(=O)C32)cc(OC)c1OC (stereo not drawn) 0.945

Give composite z-score for the following compound: CS(=O)(=O)CCOC(=O)C1=CC(c2ccc(CO)cc2)=CC(C2CC2)N(Cc2sc3ccccc3c2Cl)C=C1C(=O)OCCS(C)(=O)=O (stereo not drawn) 0.88

Give composite z-score for the following compound: `CC(C)[Si](C#CCCCC#N)(O[C@H](c1ccccc1)c1cn(Cc2ccccc2)nn1)C(C)C` 0.534

Give composite z-score for the following compound: `CCOC(=O)C1=CC[C@@H](c2ccccc2F)N(S(=O)(=O)c2ccc(C)cc2)[C@H]1c1ccccc1` 0.756

Give composite z-score for the following compound: `C=C(/C(=C/C[C@H](OC(C)=O)c1ccc(CO)o1)c1cnc2ccccc2c1)C(C)C` 0.988

Give composite z-score for the following compound: `[N-]=[N+]=Nc1ccccc1C[C@@]1(C(=O)N2CCOCC2)N=C(c2ccc(OCCCO)cc2)O[C@@H]1c1ccccc1` 0.986

Give composite z-score for the following compound: `C=CC[C@@H](OC(=O)Nc1ccc(OC)cc1)c1ccc(O)c(F)c1` -0.699

Give composite z-score for the following compound: `Cc1ccc(S[C@]2(C(=O)NC(C)C)CC(=O)N(Cc3cc(C(F)(F)F)cc(C(F)(F)F)c3)[C@@H]2c2ccc(CO)cc2)cc1` -0.983

====

# Test system: Lefty1
# experimentalDetails: Lefty1 protein binding to printed compounds – biochemical, small-molecule microarray, 635/667 nm fluorescence, primary screen (AID 1139)
# settings: fluorescence 635/667, higher = more signal
Threshold rule: composite z-score greater than or equal to 0.4 is condition met; below that, condition not met.

Record `COCC(=C=CC[C@H](O)c1ccccc1OCCO)C[C@H](O)c1ccccn1` ; criterion: composite z-score no lower than 0.4. Met? condition met

Record C=CCC(OC(C)=O)[C@@H]1[C@@H](N(Cc2cccc3ccccc23)C(=O)Cc2ccc(OC)cc2)c2cc(OCCCO)ccc2N1C(=O)c1ccc(-c2ccccc2)cc1 (some centres undefined) ; criterion: composite z-score no lower than 0.4. Met? condition not met

Record COc1cc(C(O)C2C=CC3C(=O)N(C)C(=O)C3N2Nc2ccccc2)cc(OC)c1OC (centres undefined) ; criterion: composite z-score no lower than 0.4. Met? condition not met

Record `COc1ccc(C#Cc2ccc3c(c2)[C@]2(C(=O)N3)[C@H](c3ccc(O)cc3)N3[C@H](c4ccccc4)[C@H](c4ccccc4)OC(=O)[C@H]3[C@@H]2C(=O)Nc2nc3ccccc3s2)cc1` ; criterion: composite z-score no lower than 0.4. Met? condition met

Record `COc1ccc([Si](C)(C)[C@H]2[C@H](CC(=O)N3CCC[C@H]3CO)O[C@@]3(C(=O)N(Cc4ccc(N5CCOC5=O)cc4)c4ccccc43)[C@@H]2C)cc1` ; criterion: composite z-score no lower than 0.4. Met? condition met

Record `COCCOC(=O)N1C(=O)[C@@]2(c3cc(C#CCC(C(=O)OC)C(=O)OC)ccc31)[C@H](c1ccc(OCCO)cc1)N1[C@H](c3ccccc3)[C@H](c3ccccc3)OC(=O)[C@H]1[C@@H]2C(=O)N1CCc2cc(OC)c(OC)cc2C1` ; criterion: composite z-score no lower than 0.4. Met? condition met

Record `CCOC(=O)C[C@H]1[C@H](OC(=O)Cc2ccc3c(c2)OCO3)[C@@H](NC(=O)c2ccc3ccccc3n2)c2cc(OCCCO)ccc2N1C(=O)c1ccc2ccccc2n1` ; criterion: composite z-score no lower than 0.4. Met? condition not met

Record `CCOC(=O)C1=CC[C@@H](c2ccccc2)N(S(=O)(=O)c2ccc(C)cc2)[C@H]1c1ccccc1` ; criterion: composite z-score no lower than 0.4. Met? condition not met

Record `C=C[C@H](C)[C@H](OC(=O)Nc1ccc(SC)cc1)c1ccc(OCCO)cc1` ; criterion: composite z-score no lower than 0.4. Met? condition met

Record C=CCC(OC(C)=O)[C@@H]1[C@@H](N(Cc2ccc(-c3cccc(C(F)(F)F)c3)o2)C(=O)c2ccc(-c3ccccc3)cc2)c2cc(OCCCO)ccc2N1C(=O)Cc1ccc2ccccc2c1 (some centres undefined) ; criterion: composite z-score no lower than 0.4. Met? condition not met

Record `NCCCCCNC(=O)[C@@H]1C[C@@H]2C(=O)N[C@@H](CCCCN)C(=O)N2[C@@H]1c1ccc(O)cc1` ; criterion: composite z-score no lower than 0.4. Met? condition met

Record O=C1CS(=O)(=O)C(c2cccc([N+](=O)[O-])c2)N1c1ccccc1 (centres undefined) ; criterion: composite z-score no lower than 0.4. Met? condition not met

Record `Cc1ccc(S[C@]2(C(=O)NCc3ccccc3)CC(=O)N(C3CCCCC3)[C@@H]2c2ccc(CO)cc2I)cc1` ; criterion: composite z-score no lower than 0.4. Met? condition not met

Record `CCCN1C(=O)[C@@]2(Cc3ccccc31)N=C(c1ccc(OCCCO)cc1)O[C@H]2c1ccccc1` ; criterion: composite z-score no lower than 0.4. Met? condition not met
